Data credit: patent US7528253B2

# assay-target: M3 muscarinic receptor (hM3) (Homo sapiens)
# Sequence (P20309 whole entry): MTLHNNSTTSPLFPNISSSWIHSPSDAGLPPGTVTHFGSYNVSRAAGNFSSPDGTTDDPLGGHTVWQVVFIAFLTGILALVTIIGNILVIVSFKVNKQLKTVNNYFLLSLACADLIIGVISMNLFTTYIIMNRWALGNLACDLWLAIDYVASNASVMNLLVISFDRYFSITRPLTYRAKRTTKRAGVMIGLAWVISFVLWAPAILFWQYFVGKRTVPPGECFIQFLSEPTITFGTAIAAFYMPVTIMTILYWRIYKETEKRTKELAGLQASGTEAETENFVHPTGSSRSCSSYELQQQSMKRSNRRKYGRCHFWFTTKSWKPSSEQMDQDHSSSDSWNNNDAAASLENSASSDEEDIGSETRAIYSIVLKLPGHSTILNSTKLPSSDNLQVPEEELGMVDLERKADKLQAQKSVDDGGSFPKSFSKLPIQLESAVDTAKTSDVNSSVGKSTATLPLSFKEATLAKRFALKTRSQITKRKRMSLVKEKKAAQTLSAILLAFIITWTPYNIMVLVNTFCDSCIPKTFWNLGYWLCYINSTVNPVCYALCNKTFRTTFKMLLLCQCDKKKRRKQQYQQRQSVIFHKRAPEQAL
pKi: −log10 of the molar value.
measured-attribute: pKi

Lab note: need pKi for CN(CCCCCCCCCNC[C@H](O)c1ccc(O)c2[nH]c(=O)ccc12)CCC(C)(C)OC(=O)Nc1ccccc1-c1ccccc1 [Example 1] on M3 muscarinic receptor (hM3) (Homo sapiens), anyone have it?
> 6.52
